Where do these numbers come from? They come from patent US7964531B2.

Tested on: barnyardgrass (Echinochloa oryzicola Vasing.)
Experiment: Test Example 1: herbicidal effects, paddy-field pot test
Format: in vivo
Conditions: chemical dosage 12.5 g/a; wettable powder applied 3 days after transplanting; judged after 25 days
Experimental: A paddy soil was filled in 1/10,000 are pot, and seeds of barnyardgrass (Echinochloa oryzicola Vasing.), Scirpus joncoides and annual broad-leaved weeds (Lindernia spp., Rotala indica) which are awaken from dormancy were mixed at the surface layer of 1 cm. Also, tuber of Cyperus serotinus which is germinated was planted, and further seedlings of paddy-field rice at 2.2-leaf stage were transplanted, and they were grown under the flooded condition in a greenhouse. […]
Measure Name: Herbicidal effects Barnyard grass

Use the examples below as a reference point.
CCc1ccccc1Oc1nnc(Cl)cc1O | 2 (Growth inhibition rate; 31 to 50%)
CC(C)c1ccccc1Oc1nnc(Cl)cc1O | 2 (Growth inhibition rate; 31 to 50%)
Cc1ccc(Cl)c(Oc2nnc(Cl)cc2O)c1 | 1 (Growth inhibition rate; 11 to 30%)

Challenge: Query (molecule): `Cc1cc(C)c(C)c(Oc2nnc(Cl)cc2O)c1C` ; field requested: Herbicidal effects Barnyard grass
Response given: 1 (Growth inhibition rate; 11 to 30%)
